B1: ZNF207 (parent)
chain: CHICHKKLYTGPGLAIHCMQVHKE

Variants of: B1
Protocol text: protein stability index of a GFP-peptide fusion (GPS, HEK-293T) (PSI 1-6); higher = more stable;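 note: lentivirally expressed fusions sorted by FACS into six bins by GFP to DsRed ratio, PSI derived from sequencing read proportions per bin multiplied by bin number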
Run conditions: c terminus: a fixed tail appended
Label true (1) when protein stability index is at or above 3; otherwise label false (0).

Chain sequence | Label class
CHNCHKKLYTGPGLAIHCMQVHKE [I3N] | false (0)
CHICHKKLYTGPGLAIHCMQMHKE [V21M] | true (1)
CHICHKKLYTLPGLAIHCMQVHKE [G11L] | false (0)
CHICHKKLYTGPGLAIICMQVHKE [H17I] | false (0)
CHICPKKLYTGPGLAIHCMQVHKE [H5P] | false (0)
CHICHKKLYTGPGLAIHCMQFHKE [V21F] | true (1)
CHICHKKLYTGPGLAIHCMQPHKE [V21P] | true (1)
CHICHKKLYTGPQLAIHCMQVHKE [G13Q] | true (1)
CHICHKVLYTGPGLAIHCMQVHKE [K7V] | true (1)
CHICHKKLYTGPGLAMHCMQVHKE [I16M] | true (1)
CHICHIKLYTGPGLAIHCMQVHKE [K6I] | false (0)
CHICHKKLYTGPGLAIMCMQVHKE [H17M] | false (0)
CHICHKKLYTGPGLRIHCMQVHKE [A15R] | true (1)
CHICHKKLYTGPGLAIHCMEVHKE [Q20E] | true (1)
CHACHKKLYTGPGLAIHCMQVHKE [I3A] | false (0)
CHICHKKLYTGPGLAIHCMQVHKF [E24F] | false (0)
CHICHKKLYMGPGLAIHCMQVHKE [T10M] | false (0)
CWICHKKLYTGPGLAIHCMQVHKE [H2W] | false (0)
CHICHKKLYTGPGLAIHVMQVHKE [C18V] | false (0)
CHICHKKLYTGPGLAIWCMQVHKE [H17W] | true (1)
CHICHKKLYTGPGLAIHCIQVHKE [M19I] | true (1)
CHICHKKLYTGPGLAIHCMQTHKE [V21T] | true (1)
CHICHKKLYTGPGLAIHCKQVHKE [M19K] | true (1)
CHICHKKLYNGPGLAIHCMQVHKE [T10N] | true (1)
CHICHKKLYTGPMLAIHCMQVHKE [G13M] | true (1)
CHICGKKLYTGPGLAIHCMQVHKE [H5G] | true (1)
CHICHKKLYTGPGLAEHCMQVHKE [I16E] | true (1)
CHIYHKKLYTGPGLAIHCMQVHKE [C4Y] | false (0)
CHICHKKLYTGPGLAIHCMQVHKV [E24V] | true (1)
CHICHKCLYTGPGLAIHCMQVHKE [K7C] | true (1)
CHICHKKLMTGPGLAIHCMQVHKE [Y9M] | true (1)
CHICHKKLYTGPGLAPHCMQVHKE [I16P] | true (1)
CHICHKKLYTGPGCAIHCMQVHKE [L14C] | true (1)
CHICHKALYTGPGLAIHCMQVHKE [K7A] | true (1)
CHICHKKLYTGPGLAIHCMQVHEE [K23E] | true (1)
PHICHKKLYTGPGLAIHCMQVHKE [C1P] | false (0)
CHICHKKLYTGPGLGIHCMQVHKE [A15G] | true (1)
CHICHKKLYTGPGLAIHRMQVHKE [C18R] | false (0)
CHICVKKLYTGPGLAIHCMQVHKE [H5V] | false (0)
CHICHKKLYTFPGLAIHCMQVHKE [G11F] | false (0)
CHICHKKLYYGPGLAIHCMQVHKE [T10Y] | false (0)
CHICHKKLYTGVGLAIHCMQVHKE [P12V] | false (0)

src = the supplement of paper PMC10567573
